# ASSAYED TARGET: Torsin-1A (Homo sapiens)
# ASSAY METHOD TEXT: small-molecule binders of mutant TOR1A in lysate, primary screen, cell lysate, small-molecule microarray, COS7 lysate, 635/667 nm fluorescence (AID 1150);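 also: score pools 667 nm emission and signal to noise measuring lysate protein binding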
# EXPERIMENTAL CONDITIONS: COS7 hTOR1A mutant lysate, 635 nm fluorescence, higher = more signal
Decide by composite z-score: equal to or exceeding 0.5 means satisfied, less means not satisfied.

compound=COC(=O)[C@@]1(Cc2ccc(F)cc2)[C@H]2c3cc(C(=O)N4CCCC4)n(CCF)c3C[C@H]2CN1C(=O)c1ccccc1 class_name=satisfied
compound="COc1ccc(C(O)C2C=CC3C(=O)N(C)C(=O)C3N2N2CCCCC2)cc1 (stereo not given)" class_name=satisfied
compound=CCOC(=O)C[C@H]1[C@H](OC(=O)c2ccc(-c3ccccc3)cc2)[C@@H](NC(=O)c2ccc3ccccc3c2)c2cc(OCCCO)ccc2N1C(=O)c1ccc2ccccc2n1 class_name=satisfied
compound=COc1ccc([Si](C)(C)[C@H]2[C@H](CCn3cc(CCO)nn3)O[C@@]3(C(=O)N(Cc4ccc(N5C(=O)c6cccc7cccc5c67)cc4)c4ccccc43)[C@@H]2C)cc1 class_name="not satisfied"
compound=C=C[C@@H](C)[C@H](OC(=O)Nc1ccc(SC)cc1)c1ccc(OCCO)cc1 class_name=satisfied
compound=O=C(O)[C@]1(Cc2ccccc2)N=C(c2ccc(OCCCO)cc2)O[C@@H]1c1ccccc1 class_name="not satisfied"
compound=CCOC(=O)C1=CC[C@@H](c2ccccc2C(F)(F)F)N(S(=O)(=O)c2ccc(C)cc2)C1 class_name=satisfied
compound=CCOC(=O)C[C@H]1[C@H](OC(=O)c2ccccc2-c2ccccc2)[C@@H](NC(=O)c2ccc3ccccc3n2)c2cc(OCCCO)ccc2N1C(=O)c1ccc2ccccc2n1 class_name="not satisfied"
compound="CCCCN1CC=CC23O[C@@H]4/C=C\\CCC(C)OC(=O)C4[C@H]2C(=O)N(CCCCCCO)[C@@H]3C1=O (stereo not given in full)" class_name=satisfied
compound="CCOc1cc(C(O)C2C=CC3C(=O)N(C4CCCCC4)C(=O)C3N2Nc2ccc(OC)cc2)ccc1O (stereo not given)" class_name=satisfied
compound=C=CCNC(=O)[C@@H]1[C@H]2C(=O)O[C@H](c3ccccc3)[C@H](c3ccccc3)N2[C@H](c2ccccc2OCCO)[C@@]12C(=O)N(C(=O)OCCOC)c1ccc(C#CC3=CCCCC3)cc12 class_name=satisfied
compound=COc1cc(CO)cc(I)c1O[C@H]1C=C(C(=O)NCCO)C[C@@H](NCc2ccccc2F)[C@@H]1O class_name="not satisfied"
compound=CCCNC(=O)[C@@]1(c2ccc([N+](=O)[O-])cc2)CC(=O)N(C2CCCCC2)[C@@H]1c1ccc(CO)cc1I class_name="not satisfied"
compound="COC(=O)C1(Cc2ccccc2)C=C2C(=C(c3ccccc3)C(=O)C2C)CN1 (stereo not given)" class_name="not satisfied"
compound=O=C(CS)NCCCCCCNC(=O)[C@@H]1C[C@@H]2C(=O)N3CCC[C@H]3C(=O)N2[C@@H]1c1cccc(OCCO)c1 class_name=satisfied

====

This listing pairs compounds with measured z-score.
# ASSAY METHOD TEXT: modulators of HCV replicon luciferase signal, primary screen, HCV replication inhibitor project, Huh7 cells, luciferase reporter (AID 1109);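 also: huh7 hepatoma cells harbouring a luciferase neomycin HCV replicon reporter; luciferase luminescence as measure of HCV replicon replication; test concentration not given here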
# EXPERIMENTAL CONDITIONS: 48 h, higher = more signal
REPORTED METRIC: z-score

entry_smiles=C=CCNC(=O)[C@@H]1[C@H]2C(=O)O[C@H](c3ccccc3)[C@H](c3ccccc3)N2[C@H](c2ccccc2OCCO)[C@@]12C(=O)N(C(=O)OCCOC)c1ccc(C#CC3=CCCCC3)cc12 reported_metric=z-score obs_value=-2.12
entry_smiles=CC(C)(C)OC(=O)CC[C@@]1(C(=O)O)N=C(c2ccc(OCCCO)cc2)O[C@@H]1c1ccccc1 reported_metric=z-score obs_value=0.344
entry_smiles=COc1ccc([Si](C)(C)[C@H]2[C@H](CCO)O[C@@]3(C(=O)N(Cc4cccc(N5CCCCC5=O)c4)c4ccccc43)[C@@H]2C)cc1 reported_metric=z-score obs_value=-5.07

====

This listing pairs compounds with measured composite z-score.
# Tested on: Fibrinogen (Alexa647-labelled)
# ASSAY METHOD TEXT: fibrinogen binders on compound microarrays, profiling panel, artefact control for SMM control-protein annotation, biochemical, small-molecule microarray, 635/667 nm fluorescence (AID 1131);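 also: z-score merges 667 nm fluorescence with per-spot signal-to-noise over triplicate slides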
# EXPERIMENTAL CONDITIONS: fibrinogen-A647 binding fluorescence, higher = more signal
REPORTED METRIC: composite z-score

compound=COc1ccc([Si](C)(C)[C@@H]2[C@@H](CC(=O)N3CCC[C@H]3CO)O[C@]3(C(=O)N(Cc4ccc(N5C(=O)c6cccc7cccc5c67)cc4)c4ccccc43)[C@H]2C)cc1 assayed_target="Fibrinogen (Alexa647-labelled)" reported_metric="composite z-score" obs_value=0.759
compound="CC(C)N1CC=CC23O[C@@H]4C=CCCOC(=O)C4[C@H]2C(=O)N(CCO)[C@@H]3C1=O (stereo partly specified)" assayed_target="Fibrinogen (Alexa647-labelled)" reported_metric="composite z-score" obs_value=-0.288
compound=C=CCOC(=O)[C@H]1[C@@H]2C(=O)O[C@@H](c3ccccc3)[C@@H](c3ccccc3)N2[C@@H](c2ccc(OCCOC(=O)[C@H]3C[C@H]4C(=O)N[C@@H](Cc5ccccc5)C(=O)N4[C@H]3c3cccc(OCCO)c3)cc2)[C@]12C(=O)Nc1ccc(I)cc12 assayed_target="Fibrinogen (Alexa647-labelled)" reported_metric="composite z-score" obs_value=0.948
compound=COC(=O)[C@@]1(Cc2ccc(OC)cc2)[C@H]2c3cc(C(=O)N(C)C)n(Cc4nc5ccccc5[nH]4)c3C[C@H]2CN1C(=O)c1ccccc1 assayed_target="Fibrinogen (Alexa647-labelled)" reported_metric="composite z-score" obs_value=0.991
compound=COC(=O)[C@]1(CCS(=O)(=O)c2ccccc2)N=C(c2ccc(OCCCO)cc2)O[C@@H]1c1ccccc1CN=[N+]=[N-] assayed_target="Fibrinogen (Alexa647-labelled)" reported_metric="composite z-score" obs_value=0.954
compound=CN(C)CCCNC(=O)[C@@H]1c2ccccc2C(=O)N(CC23CC4CC(CC(C4)C2)C3)[C@H]1c1ccc(CO)cc1 assayed_target="Fibrinogen (Alexa647-labelled)" reported_metric="composite z-score" obs_value=0.954

====

# System: Human papillomavirus type 1a protein E7 (residues 44-93)
# ASSAY METHOD TEXT: HPV1a E7 fragment binders on microarrays, primary screen, biochemical, small-molecule microarray, residues 44-93, 635 nm fluorescence (AID 1108);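 also: E7 fragment applied at 1 µg/mL in TBST for 1 h at 4 C; score combines spot fluorescence with its signal to noise ratio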
# EXPERIMENTAL CONDITIONS: small-molecule microarray binding, fluorescence 635 nm; higher = more signal
Decide by composite z-score: equal to or exceeding 1 means 1.0, less means 0.0.

molecule=[N-]=[N+]=NCc1ccccc1C[C@@]1(C(N)=O)N=C(c2ccc(OCCCO)cc2)O[C@@H]1c1ccccc1CN=[N+]=[N-] assayed_target="Human papillomavirus type 1a protein E7 (residues 44-93)" class_name=1.0
molecule="C[C@H]1C2=C3C(CC[C@H]4C(OCc5ccc(F)cc5C(F)(F)F)OC[C@](C)([C@@H]34)N(C(=O)OC(C)(C)C)C2)C2COC(=O)OCC21 (some centres not stated)" assayed_target="Human papillomavirus type 1a protein E7 (residues 44-93)" class_name=1.0
molecule=O=C1O[C@@H](c2ccccc2)[C@@H](c2ccccc2)N2[C@@H](c3ccccc3OCCO)[C@]3(C(=O)Nc4ccc(C#CC5=CCCCC5)cc43)[C@@H](C(=O)NC[C@H](O)c3ccccc3)[C@H]12 assayed_target="Human papillomavirus type 1a protein E7 (residues 44-93)" class_name=1.0
molecule=CCCNC(=O)[C@@]1(c2ccc([N+](=O)[O-])cc2)CC(=O)N(C2CCCCC2)[C@@H]1c1ccc(CO)cc1I assayed_target="Human papillomavirus type 1a protein E7 (residues 44-93)" class_name=0.0
molecule=C=CC[C@@H](OC(=O)Nc1ccc(OC)cc1)c1ccc(OCCO)cc1 assayed_target="Human papillomavirus type 1a protein E7 (residues 44-93)" class_name=0.0
molecule=COCCCNC(=O)[C@@]1(Sc2ccc(C)cc2)CC(=O)N(C2Cc3ccccc3C2)[C@@H]1c1ccc(CO)cc1I assayed_target="Human papillomavirus type 1a protein E7 (residues 44-93)" class_name=0.0
molecule=C[C@]1(C(=O)NCCN2CCOCC2)c2ccccc2C(=O)N(Cc2ccc(OC(F)(F)F)cc2)[C@H]1c1ccc(CO)cc1 assayed_target="Human papillomavirus type 1a protein E7 (residues 44-93)" class_name=1.0

====

# ASSAYED TARGET: Pro-neuregulin-1, membrane-bound isoform (Homo sapiens) (UniProt Q02297)
# Sequence (Q02297 whole entry, looked up, canonical isoform): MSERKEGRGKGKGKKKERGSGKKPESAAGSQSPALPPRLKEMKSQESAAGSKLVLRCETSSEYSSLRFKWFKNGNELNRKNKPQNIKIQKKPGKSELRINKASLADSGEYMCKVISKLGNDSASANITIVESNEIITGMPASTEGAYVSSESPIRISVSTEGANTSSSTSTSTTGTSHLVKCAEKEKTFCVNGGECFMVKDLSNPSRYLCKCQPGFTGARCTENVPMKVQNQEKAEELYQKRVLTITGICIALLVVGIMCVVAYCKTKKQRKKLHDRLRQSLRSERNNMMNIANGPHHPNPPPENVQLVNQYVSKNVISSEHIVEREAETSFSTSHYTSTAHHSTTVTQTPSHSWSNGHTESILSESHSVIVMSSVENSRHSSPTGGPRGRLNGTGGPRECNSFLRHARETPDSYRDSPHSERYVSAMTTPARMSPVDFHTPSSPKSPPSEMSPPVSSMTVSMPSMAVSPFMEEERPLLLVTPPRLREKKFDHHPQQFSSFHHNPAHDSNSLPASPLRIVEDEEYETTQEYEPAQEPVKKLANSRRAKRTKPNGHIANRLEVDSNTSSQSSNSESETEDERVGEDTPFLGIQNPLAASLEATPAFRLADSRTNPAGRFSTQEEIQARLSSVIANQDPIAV
# ASSAY METHOD TEXT: NRG1 binders on small-molecule microarrays, primary screen, psychiatric disease protein project, biochemical, small-molecule microarray, fluorescence 635/667 (AID 1075);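 also: score combines 667 nm spot fluorescence with signal to noise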
# EXPERIMENTAL CONDITIONS: NRG1 binding, 635 nm fluorescence, higher = more signal
REPORTED METRIC: composite z-score

compound="O=C1NC(=O)C2C1C=CC(C(O)c1c(F)cccc1Cl)N2Nc1ccccn1 (stereo not drawn)" assayed_target="Pro-neuregulin-1, membrane-bound isoform (Homo sapiens) (UniProt Q02297)" reported_metric="composite z-score" obs_value=1.53
compound="COc1cc(CO)cc(I)c1O[C@H]1C=C(C(=O)NCCO)C[C@@H](N(Cc2ccc(F)cc2)C(=O)C2CCCO2)[C@@H]1O (stereo partly drawn)" assayed_target="Pro-neuregulin-1, membrane-bound isoform (Homo sapiens) (UniProt Q02297)" reported_metric="composite z-score" obs_value=-0.0002
compound="CC1CC/C=C\\[C@H]2OC34C=CCN(C(C)C)C(=O)[C@H]3N(CCCCCO)C(=O)[C@@H]4C2C(=O)O1 (stereo partly drawn)" assayed_target="Pro-neuregulin-1, membrane-bound isoform (Homo sapiens) (UniProt Q02297)" reported_metric="composite z-score" obs_value=-0.187
compound=CCCc1cccc(=O)o1 assayed_target="Pro-neuregulin-1, membrane-bound isoform (Homo sapiens) (UniProt Q02297)" reported_metric="composite z-score" obs_value=0.785
compound=COCCOC(=O)N1C(=O)[C@@]2(c3cc(C#CC4=CCCCC4)ccc31)[C@H](c1ccccc1OCCO)N1[C@H](c3ccccc3)[C@H](c3ccccc3)OC(=O)[C@H]1[C@@H]2C(=O)N1CCc2cc(OC)c(OC)cc2C1 assayed_target="Pro-neuregulin-1, membrane-bound isoform (Homo sapiens) (UniProt Q02297)" reported_metric="composite z-score" obs_value=0.319
compound=Cc1ccc(S[C@]2(C(=O)NCC(C)C)CC(=O)N(Cc3ccccc3Cl)[C@@H]2c2ccc(CO)cc2I)cc1 assayed_target="Pro-neuregulin-1, membrane-bound isoform (Homo sapiens) (UniProt Q02297)" reported_metric="composite z-score" obs_value=1.54
compound="COc1ccc(C(O)C2C=CC3C(=O)N(c4ccccc4)C(=O)C3N2Nc2ccc(C#N)cc2)c2ccccc12 (stereo not drawn)" assayed_target="Pro-neuregulin-1, membrane-bound isoform (Homo sapiens) (UniProt Q02297)" reported_metric="composite z-score" obs_value=1.96
compound=COCC(=C=CC[C@H](O)c1ccc(OCCO)cc1)C[C@H](O)COCc1ccccc1 assayed_target="Pro-neuregulin-1, membrane-bound isoform (Homo sapiens) (UniProt Q02297)" reported_metric="composite z-score" obs_value=0.586
